TARGET: Estrogen receptor (Homo sapiens) (UniProt P03372)
Sequence (whole entry): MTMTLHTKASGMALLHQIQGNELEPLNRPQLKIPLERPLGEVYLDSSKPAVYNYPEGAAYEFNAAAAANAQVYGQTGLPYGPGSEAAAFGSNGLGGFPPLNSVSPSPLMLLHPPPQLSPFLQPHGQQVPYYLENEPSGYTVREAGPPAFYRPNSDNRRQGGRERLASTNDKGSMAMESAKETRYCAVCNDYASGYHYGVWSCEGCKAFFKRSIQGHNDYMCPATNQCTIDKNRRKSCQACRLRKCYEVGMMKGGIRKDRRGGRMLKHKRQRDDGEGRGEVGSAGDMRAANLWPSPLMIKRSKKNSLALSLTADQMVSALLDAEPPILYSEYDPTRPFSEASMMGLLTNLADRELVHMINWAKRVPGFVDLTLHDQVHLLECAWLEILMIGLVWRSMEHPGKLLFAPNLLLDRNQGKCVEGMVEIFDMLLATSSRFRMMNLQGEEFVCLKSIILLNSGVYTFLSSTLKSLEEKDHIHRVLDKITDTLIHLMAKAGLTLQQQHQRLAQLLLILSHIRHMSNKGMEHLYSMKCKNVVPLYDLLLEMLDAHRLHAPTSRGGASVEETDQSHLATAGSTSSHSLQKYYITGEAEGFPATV
ASSAY NAME: Induction of ERalpha protein degradation in human MCF7 cells assessed as ERalpha protein level at 10 uM incubated for 20 hrs by Western blot analysis relative to control
Format: cell-based
Threshold rule: Activity greater than or equal to 80% is Y; below that, N.

COMPOUND	CATEGORY LABEL
CCN(c1ccc(OCC(O)CO)cc1)S(=O)(=O)[C@H]1C[C@H]2O[C@@H]1C(c1ccc(O)cc1)=C2c1ccc(O)cc1 (relative stereo)	N
CN(c1ccccc1)S(=O)(=O)[C@H]1C[C@H]2O[C@@H]1C(c1ccc(OCCN3CCCCC3)cc1)=C2c1ccc(O)cc1 (relative stereo)	Y
CCN(c1ccccc1)S(=O)(=O)[C@H]1C[C@H]2O[C@@H]1C(c1ccc(OCCN3CCCCC3)cc1)=C2c1ccc(O)cc1 (relative stereo)	Y
COc1ccc(N(CC(F)(F)F)S(=O)(=O)[C@H]2C[C@H]3O[C@@H]2C(c2ccc(OCCCCCCC(=O)O)cc2)=C3c2ccc(O)cc2)cc1 (relative stereo)	N
COc1ccc(N(CC(F)(F)F)S(=O)(=O)[C@H]2C[C@H]3O[C@@H]2C(c2ccc(OCCCCCCCCCCC(=O)O)cc2)=C3c2ccc(O)cc2)cc1 (relative stereo)	Y
COc1ccc(N(CC(F)(F)F)S(=O)(=O)[C@H]2C[C@H]3O[C@@H]2C(c2ccc(OCCN4CCCC4)cc2)=C3c2ccc(O)cc2)cc1 (relative stereo)	N
